# System: A498
# protocol notes: NCI tumour cell line growth inhibition, 48 h
Calls of active or inactive are those of the source. No stated cut-off is given here; in the data, active = GI50 up to about 1.1 µM and inactive = higher.
assay readout: GI50

For the 5 molecules below, give their GI50 values.
1. CCOC(=O)c1ccc(C(=O)/C(C#N)=C2\CCCN2)[nH]1
2. Cc1ccc(/N=N/C(=N\c2ccc(Cl)cc2)c2ccc(N(CCC#N)CCC#N)cc2)cc1
3. CCCCn1c(-c2ccc([N+](=O)[O-])cc2)cs/c1=N/N=C1\C(=O)Nc2ccc(Br)cc21
4. OC1OC2COC(c3ccccc3)OC2C(O)C1O (stereo not given)
5. CC(=O)OCC(C)(COC(C)=O)N1C(=O)C2C3c4ccccc4C(c4ccccc43)C2C1=O (stereo not given)

Given back:
["> 100 µM (inactive)", "> 100 µM (inactive)", "17.4 µM (inactive)", "> 100 µM (inactive)", "> 100 µM (inactive)"]

----------
# Test system: HCC 2998
# protocol notes: NCI tumour cell line growth inhibition, 48 h
Calls of active or inactive are those of the source. Cut-off read from the data, not from the text of the source: active = GI50 up to about 1.1 µM and inactive = higher.
assay readout: GI50

* CN(C)CCN1C(=O)c2ccccc2C1(O)c1ccc(Cl)cc1 (centres undefined) | 62.7 µM (inactive)
* CN(CCCNCc1ccccn1)Cc1ccccc1O | 25.1 µM (inactive)
* COC(=O)C(Cc1ccccc1)NP(=O)(O)OCC1OC(n2cc(F)c(=O)[nH]c2=O)CC1O (centres undefined) | 2.39 µM (inactive)

Now look at this one.
Asked: State, in one line, measured GI50 of `Cc1ccc(C)n1-c1ccccc1C1SCCCS1`
Given back: > 100 µM (inactive)

----------
# Tested on: NCI/ADR-RES
# protocol notes: NCI tumour cell line growth inhibition, 48 h
Calls of active or inactive are those of the source. No stated cut-off is given here; in the data, active = GI50 up to about 1.1 µM and inactive = higher.
Kindly supply the reported GI50 values for the records listed here.

# example entries with known answers
- CCC1(O)CC(CCN(Cc2ccccc2)C(=O)OCc2ccccc2)C(OCc2ccccc2)C1O (stereo not drawn): 10.8 µM (inactive)
- O=C1CC(/C=C/c2ccco2)=C(O)C1=O: 24.2 µM (inactive)
- O=c1[nH]cnc2c1ncn2[C@H]1CO[C@@H](CO)[C@@H]1O: > 100 µM (inactive)
- COc1cc2nc(Nc3cccc(Br)c3)nc(Nc3cccc(Br)c3)c2cc1OC: 19.6 µM (inactive)
- O=C(c1cccc(OCc2ccccc2)c1OCc1ccccc1)N1CCSC1=S: 10.6 µM (inactive)
- CCOC(=O)NNC(=O)NCCCCNC(=O)NNC(=O)OCC: > 100 µM (inactive)

Give me GI50 for each of these compounds, listed below.
1. C[C@@H]1OC(=O)C[C@H]2CC(=O)N(CCC3CN(C(=O)c4ccccc4)c4ccccc43)C[C@@H]21 (stereo partly drawn)
2. CCC1(O)CC(OC2CC(N(C)C)C(OC3CC(O)C(OC4OC(C)C(=O)C=C4N)C(C)O3)C(C)O2)c2c(cc3c(c2O)C(=O)c2c(O)cccc2C3=O)C1C(=O)OC (stereo not drawn)
3. C/C=C/CC(C(=O)OCC)(N(C)C(=O)OC(C)(C)C)S(=O)(=O)c1ccc(C)cc1 (stereo not drawn)
4. Cn1c(=O)sc2cc(C(=S)N3CCOCC3)ccc21
5. COc1ccc(N2C(=O)/C(=C/c3ccc(N(CCC#N)CCC#N)cc3)N=C2c2ccccc2)c(OC)c1
6. Cc1cc(C)c2c(n1)S(=O)(=O)N(CCCN1CCN(c3cccc(C(F)(F)F)c3)CC1)C(C(=O)c1ccc(Cl)cc1)=C2O

Given back:
> 100 µM (inactive)
1.25 µM (inactive)
69.2 µM (inactive)
> 73.1 µM (inactive)
52.8 µM (inactive)
2.12 µM (inactive)

Hi! Can you tell me GI50 for each of these compounds?
1. COc1cc(C(O)CCBr)c(OC)cc1C (stereo not drawn)
2. C=C1C(O)CC[C@]2(C)C1C1OC(C)(C)O[C@]13CC(=O)C(C)=C([C@H]1OC(C)(C)OC12)C3(C)C (stereo partly drawn)
3. CC(C)CCCCCCCCCCCCC(=O)NCC(=O)NC1C(C)OC(Nc2ncnc3c2ncn3C)C(O)C1O (stereo not drawn)
4. COc1ccc(CNc2nc3cc(C(F)(F)F)ccc3nc2-c2ccccc2)cc1OC
5. C[N+]1(CCCC[N+]2(C)CCCCCCC2)CCCCCCC1

Given back:
7.43 µM (inactive)
> 100 µM (inactive)
> 100 µM (inactive)
54.5 µM (inactive)
> 100 µM (inactive)

Asked: // fetch GI50; item: C=C(NC(=O)C(=C)NC(=O)c1csc(C2=NC3c4csc(n4)C4NC(=O)c5csc(n5)C(C(C)(O)C(C)O)NC(=O)C5CSC(=N5)/C(=C/C)NC(=O)C(C(C)O)NC(=O)c5csc(n5)C3(CC2)NC(=O)C(C)NC(=O)C(=C)NC(=O)C(=C)NC(=O)C(C(C)C)NC2C=Cc3c(C(C)O)cc(nc3C2O)C(=O)OC4C)n1)C(N)=O (stereo not drawn) ; system: NCI/ADR-RES
Given back: > 42.2 µM (inactive)

----------
# System: DU-145
# protocol notes: NCI tumour cell line growth inhibition, 48 h
Activity calls are given as the source filed them. No stated cut-off is given here; in the data, active = GI50 up to about 1.1 µM and inactive = higher.
Write down the outcome that applies. Available outcomes: 1.0 for active, 0.0 for inactive

- C=C(Cl)COC(=O)Nc1cccc(Cl)c1: 0.0
- CC(C)(C)OC(=O)NC1CCCC1C(O)(C1=CCCC1)C1=CCCC1 (configuration not stated): 0.0
- Cc1cccc(NC(=O)/C=C/c2ccccc2)c1C: 0.0

Asked: Please share the test call associated with `CN(C1=NS(=O)(=O)N=C(N(C)c2ccccc2)O1)c1ccccc1` .
Given back: 0.0

----------
# Test system: OVCAR-5
# protocol notes: NCI tumour cell line growth inhibition, 48 h
Active and inactive are the calls of the source. Rule as the data show it: active = GI50 up to about 1.1 µM and inactive = higher.
Form entry, call: pick from label 1 for active, label 0 for inactive

- CC(C)(C)OC(=O)NC1CCCC1C(O)(C1=CCCC1)C1=CCCC1 (configuration not stated): label 0
- O=C(c1ccc(O)cc1O)C1C(c2ccc(O)cc2)OC(c2ccc(O)cc2)C1C(=O)c1ccc(O)cc1O (configuration not stated): label 0
- O=C(c1ccccc1)[C@H]1Nc2ccc(Cl)cc2[C@H]2OCCC[C@@H]12: label 0

Asked: Outcome? O=C1CCC2(CC1)Cc1ccccc1C2O (configuration not stated)
Given back: label 0

Asked: Hey, what did the test say about `Cc1cccc(NC(=O)/C=C/c2ccccc2)c1C` ?
Given back: label 0

Asked: How did this test come out for `COc1ccc(CNc2nc3cc(C(F)(F)F)ccc3nc2-c2ccccc2)cc1OC` ?
Given back: label 0

Asked: Lab log entry: COc1cc([C@@H]2c3cc4c(cc3[C@@H](/N=C/c3ccc(C(=O)O[C@H]5C[C@H]6OC[C@@]6(OC(C)=O)[C@H]6[C@H](OC(=O)c7ccccc7)[C@]7(O)C[C@H](OC(=O)[C@H](OC(=O)c8ccc(/C=N/[C@@H]9c%10cc%11c(cc%10[C@@H](c%10cc(OC)c(O)c(OC)c%10)[C@H]%10C(=O)OC[C@@H]%109)OCO%11)cc8)[C@@H](NC(=O)c8ccccc8)c8ccccc8)C(C)=C([C@@H](OC(C)=O)C(=O)[C@]56C)C7(C)C)cc3)C3COC(=O)C32)OCO4)cc(C)c1O (some centres not stated) — outcome as called in the assay?
Given back: label 0

Asked: Hello, I am checking results. What call was entered for `O=c1[nH]n(Cc2ccccn2)c2ccc([N+](=O)[O-])cc12` ?
Given back: label 0

Asked: Outcome? `O=[N+]([O-])c1cccc(-c2oc(/C=N/c3ccccc3)c([N+](=O)[O-])c2-c2cccc([N+](=O)[O-])c2)c1`
Given back: label 0

Asked: Entry `O=C(N/N=C(/c1ccccc1)C(F)(F)F)c1ccncc1` : call = ?
Given back: label 0

----------
Record form. Attribute: GI50. Fill in for each entry.
# Tested on: TK-10
# protocol notes: NCI tumour cell line growth inhibition, 48 h
The source made the active and inactive calls. Cut-off read from the data, not from the text of the source: active = GI50 up to about 1.1 µM and inactive = higher.

Field: example entries. Status: answers known.
* CN(CC(=O)O)c1ncc2c(n1)-c1ccccc1SC2 | > 100 µM (inactive)
* Brc1ccc2c3c1[C@@H]1O[C@@H]1c1cccc(c1-3)[C@@H]1O[C@H]21 | 41 µM (inactive)
* CC1(C)[C@@H]2C[C@H]1c1cnc(-c3ccccn3)cc1C2[C@@H]1c2cc(-c3ccccn3)ncc2[C@@H]2C[C@H]1C2(C)C (stereo not given in full) | 16.6 µM (inactive)
* COc1ccc(C2(CC(C)O)SCCCS2)cc1 (stereo not given) | > 100 µM (inactive)

Next, consider the following molecule.
Asked: Specify reported GI50 for the molecule shown: `O=c1n(-c2ccccc2)c(=O)n2n1C1C=CC2CCCCCC1`
Given back: > 100 µM (inactive)

----------
# Test system: M14
# protocol notes: NCI tumour cell line growth inhibition, 48 h
Active and inactive are the calls of the source. Rule as the data show it: active = GI50 up to about 1.1 µM and inactive = higher.
Use one of these outcomes when replying: 1 (yes) = active, 0 (no) = inactive

Check out these entries, answers already filled in.
* COC(=O)C(Cc1nc2ccccc2nc1O)C(=O)C(=O)Nc1ccc(F)cc1 (stereo not drawn) | 0 (no)
* O=C1CCC2(CC1)Cc1ccccc1C2O (stereo not drawn) | 0 (no)
* CC(C)(C)CNCCO | 0 (no)
* CNC(=O)OCc1nc(SC)n(C)c1COC(=O)NC | 0 (no)
* COc1cc(C2SCC(=O)N2c2ccc(NC(=O)c3ccc(N4C(=O)CSC4c4cc(OC)c(OC)c(OC)c4)cc3)cc2)cc(OC)c1OC (stereo not drawn) | 0 (no)
* [N-]=[N+]=NC1(c2ccccc2)C(=O)c2cccc3c2N(CCC3)C1=O (stereo not drawn) | 0 (no)

Asked: Per the records of this test, what outcome belongs to `COc1ccc(-n2/c(=N/C(=S)N(C)C)ss/c2=N\C(=S)N(C)C)cc1` ?
Given back: 0 (no)

Asked: For `CCCCCC(=O)OC[n+]1ccc2c(C)c3[nH]c4ccc(OC)cc4c3c(C)c2c1` , what call appears in the results of this test?
Given back: 1 (yes)

Asked: Could you please tell me the result logged for `O=C1C=CC(=O)c2c(O)c(N(CCCl)CCCl)c(Cl)c(O)c21` in this assay?
Given back: 0 (no)

Asked: Any idea what this test logged for `COc1ccc2c3ccc4c(c3n(C)c2c1)C(=O)C=CC4=O` ?
Given back: 0 (no)

Asked: Outcome? CN1Cc2cc(O)c(O)cc2C(O)C1 (stereo not drawn)
Given back: 0 (no)

Asked: For `CSc1cccc(-n2c3nc(=O)n(C)c(=O)c-3nc3ccccc32)c1` , which call appears in the assay record?
Given back: 0 (no)

Asked: Can you look up the reported call for `O=C1CCCC(O)=C1SC1=C(O)CCCC1=O` for me?
Given back: 0 (no)

Asked: What did this assay record as the result for CCCCOC(=O)C(=O)C(CC(CC)C(=O)c1ccccc1)C(=O)C=C(C)C (stereo not drawn) ?
Given back: 0 (no)

Asked: Outcome? CC1OC2/C=C\CC(O)C(C)(C)C3CCC(C)C4(O3)O[B-]35OC(C(=O)OC1C2)C1(OC(CCC1C)C(C)(C)C(O)C/C=C\C1CC(OC(=O)C4O3)C(C)O1)O5 (stereo not drawn)
Given back: 0 (no)

Asked: Outcome logged for `C[N+]1(CCCC[N+]2(C)CCCCCCC2)CCCCCCC1` in this assay:
Given back: 0 (no)

Asked: Status in this test for Cc1ccc(S(=O)(=O)N/N=C(\c2nc3ccc(Cl)cc3[nH]c2=O)C(O)c2ccco2)cc1 (stereo not drawn) ?
Given back: 0 (no)

Asked: Could you kindly confirm the outcome this assay logged for COc1cc(/C=C2/SC(c3ccccc3)N(c3cccc(Cl)c3)C2=O)cc(OC)c1OC (stereo not drawn) ?
Given back: 0 (no)

Asked: Could you kindly confirm the outcome this assay logged for `O=C(O)CCc1nc2cc3ccccc3cc2[nH]c1=O` ?
Given back: 0 (no)

Asked: Outcome logged for `CN(CC(=O)O)c1ncc2c(n1)-c1ccccc1SC2` in this assay:
Given back: 0 (no)

Asked: Called result for `O=C(OCc1ccccc1CN1CCOCC1)c1ccc(Br)cc1`
Given back: 0 (no)

Asked: Give the logged outcome of this assay for the following compound: `CSc1ccc(-c2cc(-c3nc4ccccc4[nH]3)nc3[nH]c(-c4nc5ccccc5[nH]4)cc(=O)c23)cc1`
Given back: 0 (no)

Asked: How was O=C1CCC2(c3ccc(Cl)cc3)Nc3ccncc3N12 (stereo not drawn) classified in this test?
Given back: 0 (no)

Asked: Please state the recorded outcome for this compound: Cn1c(=O)n(CC2CS2)c2ccccc21 (stereo not drawn)
Given back: 0 (no)

Asked: Which outcome did this test record for the compound `Clc1cc(-c2ccccc2)nc(Nc2nc3ccccc3[nH]2)n1` ?
Given back: 0 (no)

Asked: What classification did `O=S(=O)(NNc1ccccc1)c1ccccc1` end up with in this test?
Given back: 1 (yes)

Asked: How was C/C=C/CC(C(=O)OCC)(N(C)C(=O)OC(C)(C)C)S(=O)(=O)c1ccc(C)cc1 (stereo not drawn) classified in this test?
Given back: 0 (no)

Asked: Dear colleague, could you share the recorded outcome for CCC1(O)CC(CCN(Cc2ccccc2)C(=O)OCc2ccccc2)C(OCc2ccccc2)C1O (stereo not drawn) when you have a moment?
Given back: 0 (no)

Asked: Just curious, what result did COc1cc([C@@H]2c3cc4c(cc3[C@@H](/N=C/c3ccc(C(=O)O[C@H]5C[C@H]6OC[C@@]6(OC(C)=O)[C@H]6[C@H](OC(=O)c7ccccc7)[C@]7(O)C[C@H](OC(=O)[C@H](OC(=O)c8ccc(/C=N/[C@@H]9c%10cc%11c(cc%10[C@@H](c%10cc(OC)c(O)c(OC)c%10)[C@H]%10C(=O)OC[C@@H]%109)OCO%11)cc8)[C@@H](NC(=O)c8ccccc8)c8ccccc8)C(C)=C([C@@H](OC(C)=O)C(=O)[C@]56C)C7(C)C)cc3)C3COC(=O)C32)OCO4)cc(C)c1O (stereo partly drawn) get here?
Given back: 0 (no)
